Cited source: patent US6277872A

# ASSAYED TARGET: Histamine H1 receptor (Cavia porcellus, UniProt P31389)
# Construct: from tissue
# Sequence (P31389 whole entry): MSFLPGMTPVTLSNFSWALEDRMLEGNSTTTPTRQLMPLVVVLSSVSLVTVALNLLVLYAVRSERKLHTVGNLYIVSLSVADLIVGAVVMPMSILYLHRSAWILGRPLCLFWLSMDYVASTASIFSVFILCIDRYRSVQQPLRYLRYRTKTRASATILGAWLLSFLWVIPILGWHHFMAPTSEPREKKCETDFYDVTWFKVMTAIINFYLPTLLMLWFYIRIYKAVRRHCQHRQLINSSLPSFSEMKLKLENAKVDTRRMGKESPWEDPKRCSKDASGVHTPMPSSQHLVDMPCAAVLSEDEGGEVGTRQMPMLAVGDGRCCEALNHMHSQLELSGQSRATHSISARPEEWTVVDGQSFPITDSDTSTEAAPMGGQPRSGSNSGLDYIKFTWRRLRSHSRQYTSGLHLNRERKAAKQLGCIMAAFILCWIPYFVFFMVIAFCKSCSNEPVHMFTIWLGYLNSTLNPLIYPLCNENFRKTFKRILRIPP
# ASSAY METHOD TEXT: Histamine H1 receptor binding study
# EXPERIMENTAL SETUP: test concentration typically 10 μM; read-out: H1 Inh. [%]
# Source text: Table 5 summarises the inhibitory values on the above receptors:
QUANTITY KIND: inhibition at 10 µM (%)

[
  {
    "COMPOUND": "CCNCCOc1ccccc1-c1nc(-c2ccccc2)no1 [Example 23]",
    "REPORTED": 63
  },
  {
    "COMPOUND": "CN(C)CCOc1ccccc1-c1nc(-c2ccc(F)cc2)no1 [Example 45]",
    "REPORTED": 98
  },
  {
    "COMPOUND": "CN(C)CCOc1ccccc1-c1nc(-c2ccc(Cl)cc2Cl)no1 [Example 28]",
    "REPORTED": 92
  },
  {
    "COMPOUND": "CN(C)CCOc1ccccc1-c1nc(-c2ccccc2Br)no1 [Example 64]",
    "REPORTED": 88
  },
  {
    "COMPOUND": "COc1ccc(-c2noc(-c3ccccc3OCCN(C)C)n2)cc1 [Example 19]",
    "REPORTED": 95
  },
  {
    "COMPOUND": "Cc1cccc(-c2nc(-c3ccccc3)no2)c1OCCN(C)C [Example 68]",
    "REPORTED": 74
  },
  {
    "COMPOUND": "CN(C)CCOc1ccccc1-c1nc(-c2ccccc2F)no1 [Example 34]",
    "REPORTED": 96
  }
]
